# Tested on: K4 kissing-loop RNA reporter;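 further: bound reporter read as fluorescence of individual clusters on recovered sequencing chips by microscopy, with normalized cluster intensities fitted with a binding model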
# Assay Text: apparent KD of K4 kissing-loop reporter; higher = weaker reporter binding
# Reported Conditions: Eterna round: R107; input ligand: FMN 200 uM
Assay Endpoint: apparent KD of K4 kissing-loop reporter

Prompt line: Returns the measured apparent KD of K4 kissing-loop reporter for the input sequence. Input: UUAGAGAUCUCAGGAUAUCAGUGAUGUUGGUGUAAAGAUCUGAGAUAGAAUUCUAUCUCAGAUCAAUGAGAAGGGAGAUCUCAUU [AK3.2 Exc FMN B]
Response line: 338 nM

Prompt line: So what does the record say about apparent KD of K4 kissing-loop reporter for UCUGGAGUAUAUGAUACCAGCAGUGAGAGACAGGAAGUAUAGUGAUGUUAUAUGAGAGAAUGCCCUUGGCAGCGUGUGCGGUGGG [SSTheophylB.R] ?
Response line: 94.3 nM

Prompt line: # input sequence: AGUGCCUGCCUUAGCCUUCCCAUCAACUUCCGAGGACCGGUACGGCCGCCACUCGGCCAUCGGGCUAGUGAUGUUACCUGGUGGA [theeternabot_sameState_KL_Trp_A_50] ; wanted: its apparent KD of K4 kissing-loop reporter
Response line: 337 nM

Prompt line: Need apparent KD of K4 kissing-loop reporter of UGAUUGGCGAAAGUAGUGAUGUUACGAACAUAGGAUAUUAGAGGAAUAAGAAGGAUGAAUGAGAAAGGAAUAAAUUGUUGGUUGG [#08 K4 FMN A Same State] , thanks.
Response line: 139 nM

Prompt line: Any idea what apparent KD of K4 kissing-loop reporter was measured for AUUCAUGAGUGAUGUUCAUCGGCAGGAGAUACCAGCGAGUUAACCCGCCCUUGGCAGCUCAAGUAUAGGGACUCUGGCAUCGCCU [theeternabot_exclusion_KL_Theo_A_18] ?
Response line: 406 nM

Prompt line: What apparent KD of K4 kissing-loop reporter value was documented for this sequence, AGAUUCUUUUUUUUAUUUAAGUUUUCAGAAGGAGCGUGGUAGUACACAGGUAGGUCGCUGAAUUUUGGGCUAGUGAUGUUAGUUA [whbob_SS_Arginine_A_sa115] ?
Response line: 180 nM

Prompt line: What measured apparent KD of K4 kissing-loop reporter goes with UGUGUUGUUUUGAUGUUUGGUGUUGCUUGGCAGGAUAUCGUAGAGGCGAGAAGGGCUUGUGAGCGGUAUGAGUGAUGUUUGUAGG [zwwrmullin] ?
Response line: 485 nM

Prompt line: GET /values?readout=apparent KD of K4 kissing-loop reporter&item= UGUCAUGGAAACAUGAACGUUGAUGUUCGACGAGGACCGGUACGGCCGCCACUCGAGUAAUAGUCAGUGAUGUUGACUUGUCUAA [KL-SSTryp-A form1 sub3]
Response line: 74.2 nM

Prompt line: Give the measured apparent KD of K4 kissing-loop reporter of UAGACCAGUGAUGUUGGUUCCAAGACGGAUACCAGACUGGCAGAAGUCCCUUGGCAGCUGUAGACCUUGUGAGCUACAAGGUCGG [Theo A SS t2] .
Response line: 923 nM

Prompt line: Fill in: apparent KD of K4 kissing-loop reporter of UUUGUAUCGGGAAGGAGCGUGAAUGAUAAUGGAUAUAGUGAUGUUAUAUAUAAGAACGAAUCGCAGGUAGGUCGCCCGGAUGACU [SSArgB.Q] is ___
Response line: 431 nM

Prompt line: State the recorded apparent KD of K4 kissing-loop reporter for this entry: GGCAUAUGAAAUCGCCUAGAGAGAAAGGAUACCAGCACCCGGCGGUGCCCUUGGCAGCCUAGCCCAGUGAUGUUGGGUCCUCUAA [Rasoonanxe]
Response line: 228 nM

Prompt line: Fill in: apparent KD of K4 kissing-loop reporter of GGCCGGAAGGCGAGCGCUCCCACUCCGGAAGGAGCGCCCGCAAGGGCAGGUAGGUCGCCGGAGUGAUGUUCCGGUGGAGGGCUCG [#2 Exclusion - Arginine A Attempt #20 (Inspired by Omei)] is ___
Response line: 185 nM
